Assay: Stability in Sprague-Dawley rat blood assessed as compound remaining at 1 mg/kg, iv administered in cassette mode measured after 1 hr by capillary-HPLC/MS analysis
Assay type: ADME, organism-based
Settings: whole blood, read-out: Stability
// values below are reported remaining at 1 h

Cc1nc(NC(=O)N2CCC[C@H]2C(N)=O)sc1-c1ccnc(C(C)(C)C)n1	86%

Consider the record given below.
// returns reported remaining at 1 h for input [2H]C([2H])([2H])C(c1nccc(-c2sc(NC(=O)N3CCC[C@H]3C(N)=O)nc2C)n1)(C([2H])([2H])[2H])C([2H])([2H])[2H]
95%

====

Experiment: AUC (0 to 24 hrs) in Harlan nude mouse plasma xenografted with Rat1 cells expressing myr-p110alpha at 150 mg/kg, po qd administered for 8 days measured post last dose
Format: ADME, organism-based
Design: time < 24 hr, dose 150 mg/kg, route oral
assay-endpoint: AUC at 24 h (µM·h)
Kindly provide the numeric value in µM·h only, without the unit symbol.

Can you look up the measured AUC at 24 h of Cc1nc(NC(=O)N2CCC[C@H]2C(N)=O)sc1-c1ccnc(C(C)(C)C)n1 for me?
383
